The reported numbers originate from the supplement of paper PMC6555819.

- Test system: PPARg DBDmut:RXRa IVT, anti-PPARg (DBD mutation: PPARg1 K132A/R137A, NR concentration 270 nM, RXRa partner concentration 90 nM)
- procedureDetails: PBM binding z-score (relative to random genomic background probes); higher = stronger binding; sequences stand for … in GC…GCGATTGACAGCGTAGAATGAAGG
Kindly return Met if reported PBM binding z-score is no lower than -0.1; return Not met if it is lower.

ATCTCTAGGTAAAGATAGTTCAGTGAGTGCAAAT | Met
GGAACGAGGGCCTTCGAGTTGATAGCATGGCGAT | Not met
CCTACTGGGACAAGGTCATTGATCAGTCAAAGCA | Met
CCTAGCAGGCCAATCTGGGTTACTCAAGGCTTGA | Not met
CCTCCGAGGACAGAAGGTCAGAGCTGTCCGCTTT | Not met
TCTTGTAGATCAATAGAGCTTAAGAAAGTGCGCT | Not met
ATCTCTACGTAAGACTCAGTTCAGTGAAGAACGC | Met
TGAATGAGGTTAAAGATCTGGGAACGTGGCGTCG | Met
GCTGCTAGGTCTGGTTGGTCAGCTAACGGGTACG | Not met
GCTGCTAGGTTAGGTTGGTCAGCTAACGGGTACG | Not met
CCTACTGGGCCGAAAAGGTCATTGATGCCGATAA | Not met
CCAGCCAGGTGAAAGGTAACTCAGTCTGGTACGC | Not met
ACTAGGAGGCCAAGGGTCACTCAAGATTAGTCCG | Met
AGAACGAGGGCAAGCTGAGTTGATAGCAGAGTAG | Met
GCTAGCAGGCCATCTGGGTCACTCAATGACGGGC | Not met
TCAAATAGGTAAATGCTAGGTGAAAGTCCGATCT | Met
CGAACGAGGGCATGAGTGGATAGCAAATGCCGAT | Not met
ATCGAAAGGGCGAGGTGAGTATAGAGAAAGGGAA | Met
GCTATTAGTTGAAAGGGCAACCCAATGATTCTCG | Not met
ATACCAAGTTGATCGTGAGGTCGTTGATACTAAC | Met
CAAACTAGGTCAAGATGTCAAAGTCCGCTTCCCG | Met
TCTTGTAGATCAGCAGATTAAGAAAGCTGGCCAA | Not met
TCTATTAGTAGATTAGGGCAACCGAAACAGCGGA | Met
ATATGTAGGTTATAGGGTCATTCAGTTTGCGCAT | Met
CCTGCTAGGTCATGGTCAGATAATCTACAGTATG | Met
TAGCCTAGGTCATTGGGCCAGTATCGTACGCATC | Met
AACTCTAGGTAACCAAGTTCAGTGAATGCCGAAC | Not met
GCAACGAGGGCAAGTTGATAGCAGAGTTTGATGG | Not met
GTACCAAGGTGAATAGGGCGTTGATGAGTAGGCG | Met
GCTTACGGGTCTAAGGTTATAGCATGAATAGAAT | Met
TCTAGTTGGTCACGGAGGTCATACACGACGGGTA | Met
CGAACTAGGTCAACCAGGACAGTGAATACATTGA | Met
TAGCCTACGTCAGATCGGGCCAGTATACGCTATA | Not met
ACTATTAGTTGACTTAGGACAACCGATACGACGC | Met
TGTCAAAGTTCGAAGGTAACGTAAGTATCCACAC | Met
GTACCAAGATGAATAGGTCGTTGATGAGTAGGCG | Not met
GCCTGTAGATCAAGGTTAAGAAAGACTAAGCTAA | Not met
AGAATGAGGTTACCAAAGATCAGAGAAACGCTTG | Met
CCGAGTGGGTTATGGGGCATTCAGGCAACGGTGA | Not met
CAAACTAGGTGACAGAGGTCAAAGTCCGTGCGTA | Met
AGAACGAGGGCAGGCTGAGTTGATAGCAGAGTAG | Met
CCTTACGGGGCACTGACAGGTTATAGCATTTGGA | Not met
ACTCGGAGGACAAAGGGCAGAGCTACGCCAGTGA | Not met
CAAAGTAGGTCACAGAGGTCAAAGTCCGTGCGTA | Met
TAGCTTAGGTCATGCGGGCCAGTATAGTGTCGGC | Met
ATCTCTAGGTAACAAGTTAAGTGAAAGAGAGGAC | Met
AGTCAAAGTTCATCTAGGTAACGTAGGATATGCT | Met
GCTTGTAGATCAAGGGTAAGAAAGACTAAGCTAA | Not met
CCTAGTTGGTCAAGGTCACCCACGCTATAGGTAC | Met
ATCGAAGGGTCGAGGTGAGTATAGAGAAAGGGAA | Met
TCATATAGGTAAACGCTAGGTGAAAGTCCGATCT | Met
